# target_of_assay: UniProt P05164
# Sequence (P05164 49-745): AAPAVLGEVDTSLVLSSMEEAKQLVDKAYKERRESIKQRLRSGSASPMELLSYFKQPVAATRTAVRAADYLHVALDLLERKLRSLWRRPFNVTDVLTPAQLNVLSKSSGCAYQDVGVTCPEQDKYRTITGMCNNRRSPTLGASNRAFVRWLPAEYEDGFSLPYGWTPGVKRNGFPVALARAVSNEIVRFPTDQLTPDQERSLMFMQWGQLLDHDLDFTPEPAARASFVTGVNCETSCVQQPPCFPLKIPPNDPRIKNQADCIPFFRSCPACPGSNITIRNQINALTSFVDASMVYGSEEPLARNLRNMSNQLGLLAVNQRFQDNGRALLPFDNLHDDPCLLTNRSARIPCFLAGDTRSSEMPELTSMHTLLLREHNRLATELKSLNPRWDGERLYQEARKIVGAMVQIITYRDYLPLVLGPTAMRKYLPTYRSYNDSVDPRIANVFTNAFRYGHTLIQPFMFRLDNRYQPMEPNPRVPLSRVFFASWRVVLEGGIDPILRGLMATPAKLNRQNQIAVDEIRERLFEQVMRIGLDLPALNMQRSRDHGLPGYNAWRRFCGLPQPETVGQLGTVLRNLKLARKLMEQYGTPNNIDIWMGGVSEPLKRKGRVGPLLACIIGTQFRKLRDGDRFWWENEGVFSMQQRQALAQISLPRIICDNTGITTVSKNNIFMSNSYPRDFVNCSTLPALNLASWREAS
# assay_notes: MPO chlorination assay (APF assay)
# Type: biochemical
# experimental_parameters: MPO chlorination, potency range class; read-out: APF IC50
What IC50 was measured for each of the following?

Reference set (8 entries):
>  <molecule>
Cc1nccn1-c1ccc(COc2cc(N)nc3[nH]nnc23)c(C#N)c1

>  <test_value>
1000 to 10000 nM

$$$$
>  <molecule>
COc1ncc(-c2cc(F)c(COc3cc(N)nc4[nH]nnc34)c(F)c2)cn1

>  <test_value>
101 to 999 nM

$$$$
>  <molecule>
Nc1cc(OCc2cc(Cl)ccc2OC(F)(F)F)c2nn[nH]c2n1

>  <test_value>
1 to 100 nM

$$$$
>  <molecule>
Nc1cc(OCc2cc(C(=O)N3CCC(Cc4ccccc4)C3)ccc2Cl)c2nn[nH]c2n1 (stereo not drawn)

>  <test_value>
1000 to 10000 nM

$$$$
>  <molecule>
NC(=O)c1ccccc1COc1cc(N)nc2[nH]nnc12

>  <test_value>
1000 to 10000 nM

$$$$
>  <molecule>
COc1cc(Br)ccc1COc1cc(N)nc2[nH]nnc12

>  <test_value>
1 to 100 nM

$$$$
>  <molecule>
Nc1cc(OCC2CCCc3ccccc32)c2nn[nH]c2n1 (stereo not drawn)

>  <test_value>
1000 to 10000 nM

$$$$
>  <molecule>
CC1CCCC(C)C1COc1cc(N)nc2[nH]nnc12 (stereo not drawn)

>  <test_value>
101 to 999 nM

$$$$

Provide reported IC50 for each item, in the same order as listed.
1. Nc1cc(OCc2c(F)cc(-c3ccc(N4CCNCC4)nc3)cc2F)c2nn[nH]c2n1
2. COc1ccc(Cl)cc1COc1cc(N)nc2[nH]nnc12
3. Nc1cc(OCc2cc(Br)ccc2F)c2nn[nH]c2n1
4. CS(=O)(=O)c1ccc(Cl)cc1COc1cc(N)nc2[nH]nnc12
5. Nc1cc(OCc2cc(S(F)(F)(F)(F)F)ccc2F)c2nn[nH]c2n1
6. CC(C)n1cc(-c2ccc(COc3cc(N)nc4[nH]nnc34)c(OC(F)(F)F)c2)cn1
7. Nc1cc(OCc2c(F)ccc(-c3cncc(C(=O)N4CCOCC4)c3)c2Cl)c2nn[nH]c2n1

output:
1 to 100 nM
1 to 100 nM
1 to 100 nM
101 to 999 nM
101 to 999 nM
101 to 999 nM
1000 to 10000 nM
